test: Ex vivo plasma protein binding, terminal bleed after 5 days of acute dosing; assay type: in vitro ADME; settings: rabbit, plasma from dosed rabbits (ex vivo), oral, 30 mg/kg, HFD rabbits, terminal bleed after 5 days 30 mg/kg, week 12

[
  {
    "SMILES DATA": "OC[C@H]1O[C@H](Sc2cncc(Br)c2)[C@H](O)[C@@H](n2cc(-c3cc(F)c(F)c(F)c3)nn2)[C@H]1O",
    "fraction unbound at 5 days": 0.929
  }
]

====

assay: In vitro plasma protein binding in rabbit blood (rapid equilibrium dialysis, LC-MS/MS); format: in vitro ADME; settings: nominal 0.2, 2 and 20 μg/mL, read-out: unbound free fraction

[
  {
    "SMILES DATA": "OC[C@H]1O[C@H](Sc2cncc(Br)c2)[C@H](O)[C@@H](n2cc(-c3cc(F)c(F)c(F)c3)nn2)[C@H]1O",
    "fraction unbound": 0.141
  }
]
